The measured values listed here are drawn from ChEMBL document CHEMBL3433997.

- measurement.target: Solute carrier family 2, facilitated glucose transporter member 1 (Homo sapiens)
- assay.info: ST_JUDE_LEISH: Cytotoxicity at 2uM final concentration against transgenic Leishmania Mexicana promastigotes LmGLUT1 that are glucose transport deficient and complemented with the human glucose transporter GLUT1. Activity is measured by DNA content using SYBR green in vitro
- Assay type: functional
quantity.kind: inhibition (%)

[[record]]
compound = "O=C(O[C@H]1CN[C@H](C#Cc2cc3ncnc(Nc4ccc5c(ccn5S(=O)(=O)c5cccs5)c4)c3s2)C1)N1CCOCC1"
data_value = 9.76

[[record]]
compound = "CN1CCN(c2cc3c(cc2Cl)CCN3C(=O)Cc2ccc(NC(=O)Nc3cccc4ccccc34)cc2)CC1"
data_value = 0.87

[[record]]
compound = "O=C(NC1CCC(CCN2CCc3ccc(-c4cnccn4)cc3CC2)CC1)c1cccc(-n2cccn2)c1 (centres undefined)"
data_value = 10.2

[[record]]
compound = "N#Cc1cccc(Nc2nccc(NCC(O)c3ccccc3C(F)(F)F)n2)c1 (centres undefined)"
data_value = 9.64

